Reported composite z-score by item:
- System: Inhibin beta A chain (activin A)
- protocol.notes: INHBA (activin A) binders on microarrays, primary screen, biochemical, small-molecule microarray, 635 nm fluorescence scan (AID 1107);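 note: mouse activin A protein probed at 4.33 µg/mL on printed slides; score merges bound-protein fluorescence near 667 nm with spot signal-to-noise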
- condition.info: small-molecule microarray binding, higher = more signal

{"compound": "CCOC(=O)C1=CCC(c2ccc([N+](=O)[O-])cc2)N(S(=O)(=O)c2ccc(C)cc2)C1 (stereo not drawn)", "composite z-score": 1.32}
{"compound": "COCCOC(=O)N1C(=O)[C@@]2(c3cc(C#CC4=CCCCC4)ccc31)[C@H](C(=O)N1CCc3cc(OC)c(OC)cc3C1)[C@H]1C(=O)O[C@H](c3ccccc3)[C@H](c3ccccc3)N1[C@@H]2c1ccccc1OCCO", "composite z-score": 0.59}
{"compound": "O=C(NCc1ccccc1)[C@]1(CCS(=O)(=O)c2ccccc2)N=C(c2ccc(OCCCO)cc2)O[C@@H]1c1ccccc1", "composite z-score": 0.604}

* * *

- System: glycogen synthase kinase-3 (GSK3A per assay name; protocol says GSK3B)
- protocol.notes: GSK3 binders on small-molecule microarrays, primary screen, biochemical, small-molecule microarray, 635 nm fluorescence, GSK3A (AID 1103); note: the record names both GSK3A and GSK3B
- condition.info: small-molecule microarray binding, fluorescence 635 nm; higher = more signal
Reported composite z-score by item:
readout.name: composite z-score

{"compound": "CC(C)CNC(=O)[C@@]1(c2ccc([N+](=O)[O-])cc2)CC(=O)N(CC23CC4CC(CC(C4)C2)C3)[C@@H]1c1ccc(CO)cc1", "readout.name": "composite z-score", "recorded.value": 0.715}
{"compound": "C[C@H]1NC(=O)[C@H](Cc2ccccc2)NC(=O)[C@@]23C(=O)N[C@@H](Cc4ccccc4)C2[C@H](C)[C@@]2(C)O[C@H]2C3/C=C/C/C=C\\CNC1=O (stereo partly specified)", "readout.name": "composite z-score", "recorded.value": -1.16}
{"compound": "CN(C)CCCCNC(=O)[C@H]1C[C@H]2C(=O)N[C@@H](Cc3ccccc3)C(=O)N2[C@H]1c1ccc(O)cc1", "readout.name": "composite z-score", "recorded.value": 1.2}
{"compound": "COCCOC(=O)N1C(=O)[C@@]2(c3cc(C#CCNC(N)=O)ccc31)[C@H](c1ccc(O)cc1)N1[C@H](c3ccccc3)[C@H](c3ccccc3)OC(=O)[C@H]1[C@@H]2C(=O)NC[C@H](O)c1ccccc1", "readout.name": "composite z-score", "recorded.value": 0.727}
{"compound": "Cc1cc(C)c(C(O)C2C=CC3C(=O)N(C)C(=O)C3N2Nc2ccccc2)c(C)c1 (stereo unspecified)", "readout.name": "composite z-score", "recorded.value": 0.399}
{"compound": "C=CCC(OC(C)=O)[C@@H]1[C@@H](N(Cc2ccc(-c3ccccc3)cc2)C(=O)Cc2ccc(OC)cc2)c2cc(OCCCO)ccc2N1C(=O)c1ccc2ccccc2n1 (stereo partly specified)", "readout.name": "composite z-score", "recorded.value": -0.494}
{"compound": "CN(C)CCCNC(=O)[C@@]1(Cc2ccccc2I)c2ccccc2C(=O)N(Cc2ccccc2C(F)(F)F)[C@H]1c1ccc(CO)cc1", "readout.name": "composite z-score", "recorded.value": 0.391}
{"compound": "COCCOC(=O)N1C(=O)[C@@]2(c3cc(C#Cc4ccc(OC)cc4)ccc31)[C@H](C(=O)N1CCN(c3ncccn3)CC1)[C@H]1C(=O)O[C@H](c3ccccc3)[C@H](c3ccccc3)N1[C@@H]2c1ccc(O)cc1", "readout.name": "composite z-score", "recorded.value": -0.0617}
{"compound": "COc1ccc(C(O)C2C=CC3C(=O)N(C)C(=O)C3N2Nc2ccccc2)cc1OCc1ccccc1 (stereo unspecified)", "readout.name": "composite z-score", "recorded.value": 0.841}
{"compound": "COCCOC(=O)N1C(=O)[C@@]2(c3ccccc31)[C@H](C(=O)Nc1nc3ccccc3s1)[C@H]1C(=O)O[C@H](c3ccccc3)[C@H](c3ccccc3)N1[C@@H]2c1ccc(OCCO)cc1", "readout.name": "composite z-score", "recorded.value": 1.3}
{"compound": "CCCCC(CC)C(O)C1C=CC2C(=O)N(c3ccccc3)C(=O)C2N1Nc1ccccc1 (stereo unspecified)", "readout.name": "composite z-score", "recorded.value": 0.0129}
{"compound": "O=C(O)[C@@]1(Cc2ccccc2)N=C(c2ccc(OCCCO)cc2)O[C@H]1c1ccccc1", "readout.name": "composite z-score", "recorded.value": -0.11}
{"compound": "COC(=O)c1ccc(C(O)C2C=CC3C(=O)N(c4ccccc4)C(=O)C3N2Nc2ccc(C#N)cc2)o1 (stereo unspecified)", "readout.name": "composite z-score", "recorded.value": 0.137}
{"compound": "O=C1OCCC/C=C\\[C@H]2OC34C=CCN(Cn5nnc6ccccc65)C(=O)[C@H]3N(CCCCCO)C(=O)[C@@H]4C12 (stereo partly specified)", "readout.name": "composite z-score", "recorded.value": -1.7}
{"compound": "CC(C)C(=C=CC[C@H](O)c1cccc(OCCO)c1)C[C@H](O)COCc1ccccc1", "readout.name": "composite z-score", "recorded.value": -0.376}
{"compound": "COc1ccc(C#Cc2ccc3c(c2)[C@]2(C(=O)N3)[C@H](C(=O)NC[C@H](O)c3ccccc3)[C@H]3C(=O)O[C@H](c4ccccc4)[C@H](c4ccccc4)N3[C@@H]2c2ccccc2OCCO)cc1", "readout.name": "composite z-score", "recorded.value": 1.19}
{"compound": "CC(C)c1ccc(NN2C(C(O)c3ccc(N(C)C)cc3)C=CC3C(=O)N(c4ccccc4)C(=O)C32)cc1 (stereo unspecified)", "readout.name": "composite z-score", "recorded.value": 0.267}
{"compound": "COCCCNC(=O)[C@@]1(C)c2ccccc2C(=O)N(Cc2cc(C(F)(F)F)cc(C(F)(F)F)c2)[C@H]1c1ccc(CO)cc1", "readout.name": "composite z-score", "recorded.value": -0.514}
{"compound": "C=CCOC(=O)[C@H]1[C@@H]2C(=O)O[C@@H](c3ccccc3)[C@@H](c3ccccc3)N2[C@@H](c2ccc(OCCOC(=O)[C@@H]3C[C@@H]4C(=O)N5CCC[C@H]5C(=O)N4[C@@H]3c3ccc(O)cc3)cc2)[C@]12C(=O)Nc1ccccc12", "readout.name": "composite z-score", "recorded.value": 1.28}
{"compound": "COCCOC(=O)N1C(=O)[C@@]2(c3ccccc31)[C@H](C(=O)NC[C@H](O)c1ccccc1)[C@H]1C(=O)O[C@H](c3ccccc3)[C@H](c3ccccc3)N1[C@@H]2c1ccc(OCCO)cc1", "readout.name": "composite z-score", "recorded.value": 1.27}
{"compound": "COCCOC(=O)N1C(=O)[C@@]2(c3cc(C#CC4(O)CCCCCC4)ccc31)[C@H](C(=O)N1CCCCCCC1)[C@H]1C(=O)O[C@H](c3ccccc3)[C@H](c3ccccc3)N1[C@@H]2c1ccccc1OCCO", "readout.name": "composite z-score", "recorded.value": 1.32}
{"compound": "CC(C)NC(=O)[C@@H]1c2ccccc2C(=O)N(Cc2ccccc2Cl)[C@H]1c1ccc(CO)cc1", "readout.name": "composite z-score", "recorded.value": 0.0016}
{"compound": "Cc1ccc(S[C@]2(C(=O)NCc3ccccc3)CC(=O)N(Cc3ccccc3Cl)[C@@H]2c2ccc(CO)cc2I)cc1", "readout.name": "composite z-score", "recorded.value": -0.528}
{"compound": "C=CCC(OC(C)=O)[C@@H]1[C@@H](N(Cc2ccc(-c3ccccc3)cc2)C(=O)Cc2ccc(F)cc2)c2cc(OCCCO)ccc2N1C(=O)c1ccc2ccccc2n1 (stereo partly specified)", "readout.name": "composite z-score", "recorded.value": -0.226}
{"compound": "CCCNC(=O)[C@@]1(c2ccc([N+](=O)[O-])cc2)CC(=O)N(CC23CC4CC(CC(C4)C2)C3)[C@@H]1c1ccc(CO)cc1", "readout.name": "composite z-score", "recorded.value": 0.108}
{"compound": "CCOC(=O)[C@H]1C[C@H]2O[C@@]23C[C@H]1C(=O)N1CCCC1[C@@H]3O[Si](C)(C)C(C)(C)C (stereo partly specified)", "readout.name": "composite z-score", "recorded.value": -0.445}

* * *

- system: Calmodulin-1 (Homo sapiens)
- protocol.notes: calcium-bound CALM1 binders on microarrays, profiling panel, artefact control for SMM control-protein annotation, biochemical, small-molecule microarray, Cy5-labelled CALM1, plus calcium (AID 1112);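 note: score merges spot fluorescence with signal to noise from triplicate slides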
- condition.info: Cy5-CALM1 binding fluorescence, higher = more signal
Reported composite z-score by item:
readout.name: composite z-score

{"molecule": "CCCCC=C[C@@H](NC(=O)c1ccco1)c1ccccc1", "recorded.value": 0.137}
{"molecule": "COCC(=C=CC[C@H](O)c1ccc(OCCO)cc1)C[C@H](O)c1cc(Cl)cc(Cl)c1O", "recorded.value": -0.814}
{"molecule": "CN(C)C(=O)[C@]1(CCC(=O)OC(C)(C)C)N=C(c2ccc(OCCCO)cc2)O[C@@H]1c1ccccc1N=[N+]=[N-]", "recorded.value": 0.463}
{"molecule": "CCCNC(=O)[C@@H]1c2ccccc2C(=O)N(Cc2ccccc2)[C@H]1c1ccc(CO)cc1", "recorded.value": -1.35}
{"molecule": "NCCCCCNC(=O)[C@H]1C[C@H]2C(=O)NCC(=O)N2[C@H]1c1cccc(OCCO)c1", "recorded.value": 0.8}
{"molecule": "COc1ccc(C#Cc2ccc3c(c2)[C@]2(C(=O)N3)[C@H](c3ccc(O)cc3)N3[C@H](c4ccccc4)[C@H](c4ccccc4)OC(=O)[C@H]3[C@@H]2C(=O)N2CCCCCCC2)cc1", "recorded.value": 1.41}
{"molecule": "C=CC[C@@]1(C(=O)O)N=C(c2ccc(OCCCO)cc2)O[C@@H]1c1ccccc1N=[N+]=[N-]", "recorded.value": 0.341}
{"molecule": "COCCOC(=O)N1C(=O)[C@@]2(c3cc(C#CCC(C(=O)OC)C(=O)OC)ccc31)[C@H](C(=O)N1CCN(c3ncccn3)CC1)[C@H]1C(=O)O[C@H](c3ccccc3)[C@H](c3ccccc3)N1[C@@H]2c1ccc(OCCO)cc1", "recorded.value": -0.127}
{"molecule": "[N-]=[N+]=NCc1ccccc1[C@H]1OC(c2ccc(OCCCO)cc2)=N[C@@]1(CCS(=O)(=O)c1ccccc1)C(=O)N1CCOCC1", "recorded.value": 0.786}
{"molecule": "O=C1OCCC=C[C@H]2OC34C=CCN(Cc5ccccc5)C(=O)[C@H]3N(CCCCCCO)C(=O)[C@@H]4C12 (stereo partly specified)", "recorded.value": 0.232}
{"molecule": "[N-]=[N+]=Nc1ccccc1[C@@H]1OC(c2ccc(OCCCO)cc2)=N[C@]1(CCS(=O)(=O)c1ccccc1)C(=O)N1CCOCC1", "recorded.value": 0.764}
{"molecule": "COc1cc(CO)ccc1OC(C)=O", "recorded.value": -0.267}
{"molecule": "COC(=O)[C@@]1(Cc2ccc(OC)cc2)[C@H]2c3cc(C(=O)N4CCCC4)n(Cc4ccccn4)c3C[C@H]2CN1C(=O)c1ccccc1", "recorded.value": 0.816}
{"molecule": "CC(C)C[C@@H]1NC(=O)[C@H]2C[C@@H](C(=O)NCCCCCNC(=O)CS)[C@@H](c3cccc(OCCO)c3)N2C1=O", "recorded.value": -0.364}
{"molecule": "C=C(CCCC)/C(=C/C[C@H](OC(C)=O)c1ccc(CO)o1)c1cnc2ccccc2c1", "recorded.value": -0.693}
{"molecule": "CCOC(=O)C1=CC[C@@H](c2ccccc2)N(S(=O)(=O)c2ccc(C)cc2)[C@H]1C(=O)OCC", "recorded.value": 0.289}
